This collection of values is drawn from the supplement of paper PMC6555819.

System: PXR homodimer (NR concentration 270 nM)
Assay: PBM binding z-score (relative to random genomic background probes); higher = stronger binding; sequences stand for … in GC…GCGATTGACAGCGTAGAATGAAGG
Decision: PBM binding z-score >= 0.4 yields 1, all other cases yield -1.

Ask: Given the entry "CAAACCAGGTCAAGAGGTCAAAGTCCGCTTCCCG" , answer whether its PBM binding z-score meets or surpasses 0.4.
Reply: 1

Ask: Has "TAGCCTAGGTCATGCGGCCCAGTATAGTGTCGGC" a recorded PBM binding z-score greater than or equal to 0.4?
Reply: -1

Ask: Quick check: does "TATACAAGGTCAAAGGCCAGAGTACGAATGTCGA" have PBM binding z-score greater than or equal to 0.4?
Reply: 1

Ask: Exam item: decide whether the reported PBM binding z-score for "TATACAGGGTCAAAGGTCAGAGTACGAATGTCGA" is at least 0.4.
Reply: 1
